These entries and their values trace back to paper PMC12675387.

- targetOfAssay: hα1A adrenergic receptor (Homo sapiens)
- Sequence (P35348 whole entry): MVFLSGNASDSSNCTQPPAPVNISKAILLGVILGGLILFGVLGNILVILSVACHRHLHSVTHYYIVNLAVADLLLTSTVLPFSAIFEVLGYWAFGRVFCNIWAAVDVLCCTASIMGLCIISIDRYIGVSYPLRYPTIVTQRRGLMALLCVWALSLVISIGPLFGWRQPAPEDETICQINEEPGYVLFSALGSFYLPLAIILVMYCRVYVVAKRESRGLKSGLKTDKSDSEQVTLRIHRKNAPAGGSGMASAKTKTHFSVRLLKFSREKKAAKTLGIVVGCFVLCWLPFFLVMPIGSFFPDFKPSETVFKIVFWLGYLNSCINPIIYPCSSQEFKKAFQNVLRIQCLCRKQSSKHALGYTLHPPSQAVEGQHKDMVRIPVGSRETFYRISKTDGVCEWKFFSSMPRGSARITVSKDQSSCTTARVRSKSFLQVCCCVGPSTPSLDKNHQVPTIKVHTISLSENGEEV
- assayProcedure: Radioligand binding, α1A adrenergic receptor ([3H]prazosin)
- testConditions: hα1A Ki ± SD
measuredParameter: Ki (µM)
One number for each entry, in µM.

Some compounds with known Ki results, for comparison:
{"compound": "CCOc1cc(OC)c(CC(C)N)c(OC)c1 (stereo not drawn) [Ψ-MEM, 2,6-dimethoxy-4-ethoxyamphetamine]", "Ki, µM": 6.01}
{"compound": "COc1cc(OCC(F)(F)F)cc(OC)c1CC(C)N (stereo not drawn) [Ψ-MTFEM]", "Ki, µM": 6.1}

List the reported Ki of each compound below.
1. C=CCOc1cc(OC)c(CC(C)N)c(OC)c1 (stereo not drawn) [Ψ-MALM, 4-allyloxy-2,6-dimethoxyamphetamine]
2. COc1cc(OCc2ccccc2)cc(OC)c1CCN [Ψ-2C-O-27, 4-benzyloxy-2,6-dimethoxyphenethylamine]
3. COc1cc(OCCF)cc(OC)c1CC(C)N (stereo not drawn) [Ψ-MFEM]
4. COc1cc(OCC(F)F)cc(OC)c1CC(C)N (stereo not drawn) [Ψ-MDFEM]
5. COc1cc(OCC(F)(F)F)cc(OC)c1CCN [Ψ-2C-O-22]

Response:
1.4
3.6
6.7
3.9
2

Request: Form entry - test system: hα1A adrenergic receptor (Homo sapiens); read-out: Ki; compound: COc1cc(OCC(F)F)cc(OC)c1CCN [Ψ-2C-O-21.5]
Response: 2

====

Can you tell me pKi for the items I'm about to list?
- targetOfAssay: UniProt:Q923Y9
- Sequence (Q923Y9 whole entry): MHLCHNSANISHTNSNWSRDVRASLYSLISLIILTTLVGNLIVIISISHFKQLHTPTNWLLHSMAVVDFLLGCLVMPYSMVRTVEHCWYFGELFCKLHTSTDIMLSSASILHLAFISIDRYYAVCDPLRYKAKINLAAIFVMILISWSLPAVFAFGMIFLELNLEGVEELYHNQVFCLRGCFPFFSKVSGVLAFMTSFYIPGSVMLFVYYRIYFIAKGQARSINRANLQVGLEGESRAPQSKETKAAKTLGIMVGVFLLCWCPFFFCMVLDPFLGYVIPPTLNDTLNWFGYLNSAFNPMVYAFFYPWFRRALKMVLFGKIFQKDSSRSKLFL
- assayProcedure: Radioligand binding, rat TAAR1 ([3H]RO5166017)
Numbers only, as −log10 of the molar value.

See these solved cases before continuing.
{"molecule": "COc1cc(OC(F)F)cc(OC)c1CCN", "targetOfAssay": "UniProt:Q923Y9", "numericResult": 7.29}
{"molecule": "COc1cc(OC)c(CCN)c(OC)c1", "targetOfAssay": "UniProt:Q923Y9", "numericResult": 7.24}
{"molecule": "COc1cc(OCC(F)F)cc(OC)c1CC(C)N (centres unmarked)", "targetOfAssay": "UniProt:Q923Y9", "numericResult": 7.18}
{"molecule": "C=C(C)COc1cc(OC)c(CC(C)N)c(OC)c1 (centres unmarked)", "targetOfAssay": "UniProt:Q923Y9", "numericResult": 7.49}
{"molecule": "COc1cc(OCc2ccccc2)cc(OC)c1CCN", "targetOfAssay": "UniProt:Q923Y9", "numericResult": 8.51}
{"molecule": "CCOc1cc(OC)c(CC(C)N)c(OC)c1 (centres unmarked)", "targetOfAssay": "UniProt:Q923Y9", "numericResult": 6.96}

I need pKi for every entry listed below, if you could help.
1. COc1cc(OCC(F)(F)F)cc(OC)c1CC(C)N (centres unmarked)
2. C=CCOc1cc(OC)c(CC(C)N)c(OC)c1 (centres unmarked)
3. COc1cc(OCCF)cc(OC)c1CC(C)N (centres unmarked)
4. COc1cc(OCc2ccccc2)cc(OC)c1CC(C)N (centres unmarked)
5. C=C(C)COc1cc(OC)c(CCN)c(OC)c1
6. COc1cc(OCC(F)(F)F)cc(OC)c1CCN

Response:
1: 6.96; 2: 7.24; 3: 7.28; 4: 8.21; 5: 8.19; 6: 7.68

Batch lookup, pKi per entry.
1. COc1cc(OCCF)cc(OC)c1CCN
2. COc1cc(OC(F)F)cc(OC)c1CC(C)N (centres unmarked)
3. C=CCOc1cc(OC)c(CCN)c(OC)c1
4. COc1cc(OC)c(CC(C)N)c(OC)c1 (centres unmarked)
5. COc1cc(OCC(F)F)cc(OC)c1CCN

Response:
[7.72, 6.85, 7.92, 6.74, 7.85]

====

Kindly state pKi for each of the entries shown.
- targetOfAssay: UniProt:P28335
- Sequence (P28335 33-458): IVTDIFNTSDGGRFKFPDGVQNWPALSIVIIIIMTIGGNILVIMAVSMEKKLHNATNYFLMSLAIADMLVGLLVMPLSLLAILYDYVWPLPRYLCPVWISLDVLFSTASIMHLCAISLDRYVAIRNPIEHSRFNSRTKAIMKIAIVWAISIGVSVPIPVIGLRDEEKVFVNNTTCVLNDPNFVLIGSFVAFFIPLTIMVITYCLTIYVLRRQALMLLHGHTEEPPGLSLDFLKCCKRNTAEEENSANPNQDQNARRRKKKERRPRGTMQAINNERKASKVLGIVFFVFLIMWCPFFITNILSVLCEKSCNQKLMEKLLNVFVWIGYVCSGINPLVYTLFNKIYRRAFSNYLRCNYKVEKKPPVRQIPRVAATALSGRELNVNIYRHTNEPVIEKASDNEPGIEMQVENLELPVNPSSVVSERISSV
Numbers only, as −log10 of the molar value.

{"molecule": "CCOc1cc(OC)c(CCN)c(OC)c1", "pKi": 5.82}
{"molecule": "COc1cc(OCC(F)F)cc(OC)c1CC(C)N (stereo not shown)", "pKi": 5.02}

For every item in the list below, what is its measured pKi?
1. COc1cc(OCC(F)(F)F)cc(OC)c1CC(C)N (stereo not shown)
2. COc1cc(OCC(F)F)cc(OC)c1CCN

Response:
1: 5.26; 2: 5.55

Go through the list and state pKi for each entry.
1. COc1cc(OCCF)cc(OC)c1CC(C)N (stereo not shown)
2. C=CCOc1cc(OC)c(CC(C)N)c(OC)c1 (stereo not shown)
3. COc1cc(OC(F)F)cc(OC)c1CCN
4. C=C(C)COc1cc(OC)c(CCN)c(OC)c1
5. COc1cc(OC(F)F)cc(OC)c1CC(C)N (stereo not shown)

Response:
1. 5.00
2. 6.11
3. 6.29
4. 6.68
5. 5.74

Request: Name the recorded pKi for COc1cc(OC)c(CC(C)N)c(OC)c1 (stereo not shown) .
Response: 5.74

====

- targetOfAssay: hSERT (Homo sapiens, UniProt P31645)
- Sequence (P31645 whole entry): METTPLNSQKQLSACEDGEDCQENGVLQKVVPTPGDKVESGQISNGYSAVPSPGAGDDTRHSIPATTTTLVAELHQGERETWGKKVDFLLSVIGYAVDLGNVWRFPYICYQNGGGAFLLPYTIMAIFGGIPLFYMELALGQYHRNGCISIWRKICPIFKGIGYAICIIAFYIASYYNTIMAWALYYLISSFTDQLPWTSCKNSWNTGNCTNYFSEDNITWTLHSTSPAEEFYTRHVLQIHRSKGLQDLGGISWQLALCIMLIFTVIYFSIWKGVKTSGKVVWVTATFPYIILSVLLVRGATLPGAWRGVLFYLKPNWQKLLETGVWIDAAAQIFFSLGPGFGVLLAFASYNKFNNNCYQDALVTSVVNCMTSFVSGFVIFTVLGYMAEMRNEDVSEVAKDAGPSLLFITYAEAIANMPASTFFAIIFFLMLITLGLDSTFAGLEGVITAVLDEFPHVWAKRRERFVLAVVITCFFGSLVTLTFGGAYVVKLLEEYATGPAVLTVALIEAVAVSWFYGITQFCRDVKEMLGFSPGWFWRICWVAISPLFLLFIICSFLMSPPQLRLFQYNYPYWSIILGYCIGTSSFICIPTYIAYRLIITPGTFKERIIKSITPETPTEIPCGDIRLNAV
- assayProcedure: Radioligand binding, SERT ([3H]citalopram)
- testConditions: hSERT Ki ± SD, [3H]citalopram
measuredParameter: Ki

{"compound": "COc1cc(OCC(F)(F)F)cc(OC)c1CCN", "targetOfAssay": "hSERT (Homo sapiens, UniProt P31645)", "Ki": "> 7.5 µM"}
{"compound": "CCOc1cc(OC)c(CCN)c(OC)c1", "targetOfAssay": "hSERT (Homo sapiens, UniProt P31645)", "Ki": "> 7.5 µM"}
{"compound": "CCOc1cc(OC)c(CC(C)N)c(OC)c1 (centres unmarked)", "targetOfAssay": "hSERT (Homo sapiens, UniProt P31645)", "Ki": "> 7.5 µM"}
{"compound": "C=C(C)COc1cc(OC)c(CCN)c(OC)c1", "targetOfAssay": "hSERT (Homo sapiens, UniProt P31645)", "Ki": "> 7.5 µM"}
{"compound": "COc1cc(OCC(F)F)cc(OC)c1CCN", "targetOfAssay": "hSERT (Homo sapiens, UniProt P31645)", "Ki": "> 7.5 µM"}

For every item below, please supply its Ki.
1. COc1cc(OCc2ccccc2)cc(OC)c1CC(C)N (centres unmarked)
2. COc1cc(OC(F)F)cc(OC)c1CC(C)N (centres unmarked)
3. C=CCOc1cc(OC)c(CCN)c(OC)c1

Response:
> 7.5 µM
> 7.5 µM
> 7.5 µM

====

- targetOfAssay: human 5-HT2B receptor (Homo sapiens)
- Sequence (P41595 whole entry): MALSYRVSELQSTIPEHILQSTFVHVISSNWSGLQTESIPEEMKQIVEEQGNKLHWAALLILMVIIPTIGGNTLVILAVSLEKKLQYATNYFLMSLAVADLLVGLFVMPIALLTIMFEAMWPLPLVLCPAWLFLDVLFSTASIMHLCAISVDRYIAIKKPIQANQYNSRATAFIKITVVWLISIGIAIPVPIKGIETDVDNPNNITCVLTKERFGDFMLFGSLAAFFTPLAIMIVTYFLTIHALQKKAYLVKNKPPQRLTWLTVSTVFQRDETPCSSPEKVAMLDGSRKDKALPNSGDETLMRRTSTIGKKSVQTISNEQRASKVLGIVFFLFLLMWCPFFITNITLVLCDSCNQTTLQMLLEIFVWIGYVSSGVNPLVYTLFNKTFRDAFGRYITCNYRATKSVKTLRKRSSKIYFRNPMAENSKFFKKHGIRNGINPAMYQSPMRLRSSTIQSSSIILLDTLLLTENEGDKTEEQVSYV
- assayProcedure: Activation potency and efficacy at the 5-HT2B receptor (Fluo-4 calcium, HEK 293 cells)
Field: pEC50. Provide a value for each of the molecules that follow.
Answers are plain numbers, as −log10 of the molar value.

{"molecule": "C=CCOc1cc(OC)c(CC(C)N)c(OC)c1 (stereo not drawn)", "pEC50": 7.26}
{"molecule": "COc1cc(OC(F)F)cc(OC)c1CC(C)N (stereo not drawn)", "pEC50": 6.80}
{"molecule": "CCOc1cc(OC)c(CCN)c(OC)c1", "pEC50": 5.68}
{"molecule": "C=C(C)COc1cc(OC)c(CC(C)N)c(OC)c1 (stereo not drawn)", "pEC50": 7.03}
{"molecule": "CCOc1cc(OC)c(CC(C)N)c(OC)c1 (stereo not drawn)", "pEC50": 6.59}

Record pEC50 for all entries; do not skip any.
1. C=CCOc1cc(OC)c(CCN)c(OC)c1
2. C=C(C)COc1cc(OC)c(CCN)c(OC)c1
3. COc1cc(OC)c(CC(C)N)c(OC)c1 (stereo not drawn)

Response:
[7.04, 6.51, 6.82]

Give one value of pEC50 per listed molecule.
1. COc1cc(OC(F)F)cc(OC)c1CCN
2. COc1cc(OC)c(CCN)c(OC)c1

Response:
1: 6.52; 2: 6.48

====

Form: system (h5-HT1A receptor (Homo sapiens, UniProt P08908)), quantity (Ki), values below.

Hi, could you look up Ki for each item in my list?
1. CCOc1cc(OC)c(CCN)c(OC)c1 [Ψ-2C-O-2, 2,6-dimethoxy-4-ethoxyphenethylamine]
2. CCOc1cc(OC)c(CC(C)N)c(OC)c1 (centres unmarked) [Ψ-MEM, 2,6-dimethoxy-4-ethoxyamphetamine]
3. C=C(C)COc1cc(OC)c(CC(C)N)c(OC)c1 (centres unmarked) [Ψ-MMALM, 2,6-dimethoxy-4-methallyloxyamphetamine]

Response:
0.71 µM
> 5.6 µM
> 5.6 µM

====

Consider the following molecules; for each one, report its pKi.
- targetOfAssay: hDAT (Homo sapiens)
- Sequence (Q01959 whole entry): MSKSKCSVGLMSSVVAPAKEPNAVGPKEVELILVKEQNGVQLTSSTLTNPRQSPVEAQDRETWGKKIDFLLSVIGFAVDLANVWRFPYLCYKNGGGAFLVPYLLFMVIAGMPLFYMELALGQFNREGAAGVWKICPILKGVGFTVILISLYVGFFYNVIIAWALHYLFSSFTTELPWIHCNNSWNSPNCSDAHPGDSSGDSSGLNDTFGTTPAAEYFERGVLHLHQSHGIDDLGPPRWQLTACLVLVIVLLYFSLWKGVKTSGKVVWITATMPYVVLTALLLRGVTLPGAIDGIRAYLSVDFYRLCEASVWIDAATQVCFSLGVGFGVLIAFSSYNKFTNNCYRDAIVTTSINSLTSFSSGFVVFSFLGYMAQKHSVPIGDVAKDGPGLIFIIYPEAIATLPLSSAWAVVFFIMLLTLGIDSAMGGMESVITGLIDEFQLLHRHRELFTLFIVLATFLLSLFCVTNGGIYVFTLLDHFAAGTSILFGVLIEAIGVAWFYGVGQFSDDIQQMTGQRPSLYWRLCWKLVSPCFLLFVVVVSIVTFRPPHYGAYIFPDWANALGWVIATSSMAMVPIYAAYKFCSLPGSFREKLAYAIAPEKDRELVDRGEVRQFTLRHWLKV
- assayProcedure: Radioligand binding, DAT ([3H]WIN35,428)
- testConditions: hDAT Ki ± SD, [3H]WIN35,428
pKi: −log10 of the molar value.

{"molecule": "C=C(C)COc1cc(OC)c(CC(C)N)c(OC)c1 (stereo not shown) [Ψ-MMALM, 2,6-dimethoxy-4-methallyloxyamphetamine]", "pKi": 5.24}

Give pKi for all molecules that follow.
1. COc1cc(OC(F)F)cc(OC)c1CCN [Ψ-2C-O-35]
2. COc1cc(OCC(F)F)cc(OC)c1CCN [Ψ-2C-O-21.5]
3. COc1cc(OC(F)F)cc(OC)c1CC(C)N (stereo not shown) [Ψ-DODFMO]
4. CCOc1cc(OC)c(CC(C)N)c(OC)c1 (stereo not shown) [Ψ-MEM, 2,6-dimethoxy-4-ethoxyamphetamine]
5. COc1cc(OC)c(CCN)c(OC)c1 [Ψ-2C-O-1, 2,4,6-trimethoxyphenethylamine]
6. COc1cc(OCCF)cc(OC)c1CCN [Ψ-2C-O-21]

Response:
< 5.07
< 5.07
< 5.07
< 5.07
< 5.07
< 5.07

State the recorded pKi for every item in the following list.
1. COc1cc(OC)c(CC(C)N)c(OC)c1 (stereo not shown) [TMA-6, 2,4,6-trimethoxyamphetamine]
2. C=CCOc1cc(OC)c(CCN)c(OC)c1 [Ψ-2C-O-16, 4-allyloxy-2,6-dimethoxyphenethylamine]
3. C=CCOc1cc(OC)c(CC(C)N)c(OC)c1 (stereo not shown) [Ψ-MALM, 4-allyloxy-2,6-dimethoxyamphetamine]
4. COc1cc(OCc2ccccc2)cc(OC)c1CC(C)N (stereo not shown) [Ψ-MBnM, 4-benzyloxy-2,6-dimethoxyamphetamine]
5. C=C(C)COc1cc(OC)c(CCN)c(OC)c1 [Ψ-2C-O-3]

Response:
["< 5.07", "< 5.07", "< 5.07", 5.74, 5.11]

Request: # query: pKi | item COc1cc(OCC(F)F)cc(OC)c1CC(C)N (stereo not shown) [Ψ-MDFEM] | system: hDAT (Homo sapiens)
Response: 5.27
